Origin of measurements: PubChem BioAssay AID1217

# System: diaphorase (Clostridium kluyveri)
# protocol: compounds blocking diaphorase resazurin reduction – biochemical, uHTS, resorufin fluorescence, counter-screen for diaphorase-coupled primary assays, primary screen (AID 1217);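 also: plate controls were DMSO with full reaction for no effect and wells lacking NADH for full effect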
# condition set: diaphorase resazurin-to-resorufin fluorescence, NADH, 16 min; at 20 µM; hits give high values; bacterial (C. kluyveri) enzyme, not human
Out of some 190,000 compounds screened, about 1,300 (0.68%) were called active. The sample holds actives, similar compounds and a random draw of the others, so the mix is not that of the screen.
The reader will find reported inhibition values listed item by item below.
attribute measured: inhibition (%)

INSERT INTO assay_data (molecule, attribute_measured, units, value) VALUES
  ('Oc1c(C=Nc2cccc3nsnc23)ccc2ccccc12', 'inhibition', '%', 62.8),
  ('COc1ccc(C=Nc2cccc3ncccc23)cc1', 'inhibition', '%', 39.7),
  ('COc1ccc(NC(=S)NCCN2CCC(C)CC2)cc1', 'inhibition', '%', -1.3),
  ('Cc1cccc(NC(=O)Nc2ccc3c(c2)OCO3)n1', 'inhibition', '%', 18.3),
  ('COCCN(CCOC)S(=O)(=O)c1ccc(/C(O)=C(\C#N)c2nc3ccccc3[nH]2)cc1', 'inhibition', '%', 5.6),
  ('Cc1c(CN2CCCC(C(=O)c3cccc(Cl)c3)C2)c(=O)n(-c2ccccc2)n1C (stereo unspecified)', 'inhibition', '%', 15.1);
